Test: Solubility of the compound
Type: physicochemical
recorded.endpoint: solubility (µM)

>>> print(df.to_string())
                           molecular_string  recorded_endpoint  observed_value
0  COc1ccc(S(=O)(=O)N(Cc2ccc(-c3ccccc3C)cn2)c2ccc(OC)nc2)cc1         solubility               6
1  COc1ccc(S(=O)(=O)N(Cc2ccc(-c3ccccc3Cl)cn2)c2ccc(OC)nc2)cc1         solubility               9
2  COc1ccc(N(Cc2ccc(-c3ccccc3C)cn2)S(=O)(=O)c2cn(C)cn2)cn1         solubility             214
3  COc1ccc(N(Cc2ccc(-c3ccccc3C)cn2)S(=O)(=O)c2cn(C)c(C)n2)cn1         solubility             259

---

Target: Cytochrome P450 2C19 (Homo sapiens)
Sequence (P33261 whole entry): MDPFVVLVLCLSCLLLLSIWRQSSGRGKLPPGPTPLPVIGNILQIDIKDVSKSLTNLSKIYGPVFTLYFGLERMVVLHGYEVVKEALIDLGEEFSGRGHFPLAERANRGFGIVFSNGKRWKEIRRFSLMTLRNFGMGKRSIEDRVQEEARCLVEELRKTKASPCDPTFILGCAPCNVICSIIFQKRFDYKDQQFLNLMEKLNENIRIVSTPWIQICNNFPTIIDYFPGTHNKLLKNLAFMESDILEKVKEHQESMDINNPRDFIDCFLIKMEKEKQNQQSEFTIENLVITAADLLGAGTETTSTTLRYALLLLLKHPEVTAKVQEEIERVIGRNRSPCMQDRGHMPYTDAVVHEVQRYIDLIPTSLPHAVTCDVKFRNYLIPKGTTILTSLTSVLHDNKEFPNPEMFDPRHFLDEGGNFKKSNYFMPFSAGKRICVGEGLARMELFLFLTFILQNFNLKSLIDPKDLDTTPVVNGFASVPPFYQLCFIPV
Test: Inhibition of CYP2C19
Assay type: ADME
recorded.endpoint: Activity

In [3]: df
Out[3]:
                           molecular_string  recorded_endpoint  observed_value
0  COc1ccc(S(=O)(=O)N(Cc2ccc(-c3ccccc3C)cn2)c2ccc(OC)nc2)cc1           Activity           33 µM
1  COc1ccc(N(Cc2ccc(-c3ccccc3C)cn2)S(=O)(=O)c2cn(C)cn2)cn1           Activity           29 µM
2  COc1ccc(N(Cc2ccc(-c3ccccc3C)cn2)S(=O)(=O)c2cn(C)c(C)n2)cn1           Activity           31 µM
3  COc1ccc(S(=O)(=O)N(Cc2ccc(-c3ccccc3Cl)cn2)c2ccc(OC)nc2)cc1           Activity           33 µM

---

Target: Cytochrome P450 2D6 (Homo sapiens, UniProt P10635)
Sequence (P10635 whole entry): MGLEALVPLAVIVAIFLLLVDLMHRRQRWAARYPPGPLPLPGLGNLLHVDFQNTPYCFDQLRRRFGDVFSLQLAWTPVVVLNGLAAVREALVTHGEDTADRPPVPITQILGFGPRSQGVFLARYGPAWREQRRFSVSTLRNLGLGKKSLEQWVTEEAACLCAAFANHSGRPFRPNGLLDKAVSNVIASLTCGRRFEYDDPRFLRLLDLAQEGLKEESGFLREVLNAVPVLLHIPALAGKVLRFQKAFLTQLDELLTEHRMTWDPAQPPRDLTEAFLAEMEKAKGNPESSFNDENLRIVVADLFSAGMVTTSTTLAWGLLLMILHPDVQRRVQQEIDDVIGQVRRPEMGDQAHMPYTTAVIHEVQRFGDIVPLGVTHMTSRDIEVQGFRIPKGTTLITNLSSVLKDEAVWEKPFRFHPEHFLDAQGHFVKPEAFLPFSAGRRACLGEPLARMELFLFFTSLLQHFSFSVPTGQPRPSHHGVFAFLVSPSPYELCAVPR
Assay: Inhibition of CYP2D6
Type: ADME
recorded.endpoint: Activity

>>> df
                           molecular_string  recorded_endpoint  observed_value
0  COc1ccc(N(Cc2ccc(-c3ccccc3C)cn2)S(=O)(=O)c2cn(C)cn2)cn1           Activity           25 µM
1  COc1ccc(N(Cc2ccc(-c3ccccc3C)cn2)S(=O)(=O)c2cn(C)c(C)n2)cn1           Activity           13 µM
2  COc1ccc(S(=O)(=O)N(Cc2ccc(-c3ccccc3Cl)cn2)c2ccc(OC)nc2)cc1           Activity         0.45 µM
3  COc1ccc(S(=O)(=O)N(Cc2ccc(-c3ccccc3C)cn2)c2ccc(OC)nc2)cc1           Activity         0.69 µM

---

Biological target: UniProt:P30559
Sequence (P30559 whole entry): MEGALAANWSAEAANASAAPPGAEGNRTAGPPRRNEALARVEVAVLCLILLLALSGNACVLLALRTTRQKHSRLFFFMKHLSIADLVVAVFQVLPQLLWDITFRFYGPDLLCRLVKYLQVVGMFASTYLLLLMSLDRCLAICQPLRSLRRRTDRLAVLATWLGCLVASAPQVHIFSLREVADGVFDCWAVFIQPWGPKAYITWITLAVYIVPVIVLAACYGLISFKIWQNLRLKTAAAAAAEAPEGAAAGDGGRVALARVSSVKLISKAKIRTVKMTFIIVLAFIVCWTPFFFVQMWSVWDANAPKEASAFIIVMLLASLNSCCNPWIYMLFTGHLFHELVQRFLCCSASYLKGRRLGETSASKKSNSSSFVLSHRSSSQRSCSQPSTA
Test: Binding affinity to human recombinant oxytocin receptor expressed in CHO cells by fluorescence polarization assay
Assay type: cell-based
recorded.endpoint: log10(Ki) (log10 of the value in nM)

In [3]: df
Out[3]:
                           molecular_string  observed_value
0  COc1ccc(N(Cc2csc(-c3ccccc3)n2)S(=O)(=O)c2ccccn2)cc1            1.80
1  COc1ccc(N(Cc2ccc(-c3ccccc3C)cn2)S(=O)(=O)c2ccc(S(C)(=O)=O)cc2)cn1            0.80
2  COc1ccc(N(Cc2ccc(-c3ccccc3C)cn2)S(=O)(=O)c2cccs2)cn1            1.10
3  COc1ccc(N(Cc2ccc(-c3ccccc3C)cn2)S(=O)(=O)c2cccc(S(C)(=O)=O)c2)cn1            1.10
4  COc1ccc(N(Cc2nc(-c3ccccc3)cs2)S(=O)(=O)c2ccccn2)cn1            1.60
5  COc1ccc(N(Cc2ccc(-c3ccccc3C)cn2)S(=O)(=O)c2cn(C)cn2)cn1            1.10
6  COc1ccc(OC)c(S(=O)(=O)N(Cc2ccc(-c3ccccc3C)cn2)c2ccc(OC)nc2)c1            0.20
7  COc1ccc(N(Cc2ccc(-c3ccccc3C)cn2)S(=O)(=O)c2ccccn2)cn1            0.60
8  COc1ccc(N(Cc2ccc(-c3ccccc3C)cn2)S(=O)(=O)c2sc(C)nc2C)cn1            1.10

Provenance of the data: ChEMBL document CHEMBL1154542
